Value source: ChEMBL document CHEMBL4819050

Target: Enteropeptidase (Homo sapiens) (UniProt P98073)
Sequence (P98073 2-784 limits assumed): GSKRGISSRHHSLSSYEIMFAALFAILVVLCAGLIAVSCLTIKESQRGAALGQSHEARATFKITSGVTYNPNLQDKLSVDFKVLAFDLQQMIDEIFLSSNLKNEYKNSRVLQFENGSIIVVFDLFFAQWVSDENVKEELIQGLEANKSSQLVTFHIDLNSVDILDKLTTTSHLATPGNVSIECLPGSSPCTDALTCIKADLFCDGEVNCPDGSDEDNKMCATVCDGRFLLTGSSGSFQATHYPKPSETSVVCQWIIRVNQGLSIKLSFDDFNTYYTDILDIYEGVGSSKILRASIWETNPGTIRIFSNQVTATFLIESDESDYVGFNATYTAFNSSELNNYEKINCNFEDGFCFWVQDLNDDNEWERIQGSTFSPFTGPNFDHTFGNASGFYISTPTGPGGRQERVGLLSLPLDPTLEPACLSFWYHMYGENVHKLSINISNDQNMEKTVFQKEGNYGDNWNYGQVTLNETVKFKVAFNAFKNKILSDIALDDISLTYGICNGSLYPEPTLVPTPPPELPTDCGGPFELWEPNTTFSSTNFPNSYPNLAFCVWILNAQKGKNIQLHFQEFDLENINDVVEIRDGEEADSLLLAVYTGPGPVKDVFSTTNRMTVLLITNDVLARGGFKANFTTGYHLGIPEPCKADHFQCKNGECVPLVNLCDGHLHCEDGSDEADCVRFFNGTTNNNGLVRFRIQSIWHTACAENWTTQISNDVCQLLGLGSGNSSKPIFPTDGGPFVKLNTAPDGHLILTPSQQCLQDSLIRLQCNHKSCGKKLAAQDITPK
Sequence (P98073 785-1019 limits assumed): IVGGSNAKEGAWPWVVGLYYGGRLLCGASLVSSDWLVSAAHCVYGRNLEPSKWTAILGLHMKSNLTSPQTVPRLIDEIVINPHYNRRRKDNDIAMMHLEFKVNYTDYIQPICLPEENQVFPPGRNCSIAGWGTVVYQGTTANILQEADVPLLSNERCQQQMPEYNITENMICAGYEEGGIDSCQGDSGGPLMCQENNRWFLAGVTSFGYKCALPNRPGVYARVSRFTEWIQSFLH
Assay: Inhibition of full length recombinant human EP expressed in CHO cells assessed as protease activity using […] as substrate at 1 uM by fluorescence assay relative to control
Parameters: scale not given: the % may be the effect or the level left
Assay Endpoint: Activity (%)
Response body: numeric value in %, unit text excluded.

Tell me its Activity given N=C(N)Nc1ccc(C(=O)Oc2ccc(CC(=O)O)n3ccnc23)cc1 as the entry.
100

Using the record for C#CCOCCOCC#Cc1ccc(CC(=O)O)n2ncnc12 , state its measured Activity.
98.5

Write down Activity measured for item CN(C(=N)N)c1ccc(C(=O)Oc2ccc(CC(=O)O)n3ncnc23)cc1
93.8

State its Activity: O=C(O)Cc1ccc(OC(=O)c2ccc(C3=NCCN3)cc2)c2ncnn12
16.9

Given COc1cc(C(=O)Oc2ccc(CC(=O)O)n3ncnc23)ccc1NC(=N)N , respond with its Activity.
87.1

Give reported Activity value for N=C(NN)c1ccc(C(=O)Oc2ccc(CC(=O)O)n3ncnc23)cc1
12.2

# return recorded Activity for entry C/C(=N\O)Nc1ccc(C(=O)Oc2ccc(CC(=O)O)n3ncnc23)cc1
-10.1

Return the recorded Activity value; entry: N=C(N)Nc1ccc(C(=O)Oc2ccc(CC(=O)O)n3ncnc23)s1
100

For the compound N=C(N)Nc1ccc(C(=O)Oc2ccc(CC(=O)N(CC(=O)O)CC(=O)O)n3ncnc23)cc1 , give its reported Activity.
72.9

Recall and state the measured Activity for CNC(=N)Nc1ccc(C(=O)Oc2ccc(CC(=O)O)n3ncnc23)cc1 .
80.1

Find the measured Activity of N#Cc1cc(C(=O)Oc2ccc(CC(=O)O)n3ncnc23)ccc1NC(=N)N and report it.
-6.26

Annotate the compound CS(=O)(=O)NC(=O)Cc1ccc(OC(=O)c2ccc(NC(=N)N)cc2)c2ncnn12 with its measured Activity.
100

Consider the compound N=C(N)Nc1ccc(C(=O)Oc2ccc(CC(=O)O)n3ncnc23)c2ccoc12 and give its recorded Activity.
98.8

Quote Activity reported for CNC(=N)c1ccc(C(=O)Oc2ccc(CC(=O)O)n3ncnc23)cc1 please.
11.3

Give Activity for N=C(N)Nc1ccc(C(=O)Oc2ccc(CC(=O)O)n3ncnc23)cc1Cl
84.4

Provide only the value of recorded Activity for N=C(N)Nc1ccc(C(=O)Oc2cc(CC(=O)O)cn3ncnc23)cc1
58.8

State its Activity for this compound: N=C(N)Nc1ccc(C(=O)Oc2ccc(CC(=O)O)n3ncnc23)cc1F
100

Respond only with Activity recorded for O=C(O)Cc1ccc(OC(=O)c2ccc(NC3=NCCCN3)cc2)c2ncnn12
-2

Dear colleague, please send me the reported Activity for CONC(=N)c1ccc(C(=O)Oc2ccc(CC(=O)O)n3ncnc23)cc1 when you can.
9.05

Give recorded Activity. N#CNC(=N)c1ccc(C(=O)Oc2ccc(CC(=O)O)n3ncnc23)cc1
1.9

For the compound N=C(N)Nc1ccc(C(=O)Oc2ccc(CC(=O)NCC(=O)O)n3ncnc23)cc1 , give its reported Activity.
101

Quick one: give measured Activity for N=C(N)Nc1ccc(C(=O)Oc2ccc(C3OC(=O)NC3=O)n3ncnc23)cc1 (stereo not drawn)
101

Provide Activity value for the following compound: N=C(N)Nc1ccc(C(=O)Oc2ccc(CC(=O)O)n3ncnc23)cc1
100

Identify measured Activity associated with N=C(N)Nc1ccc(C(=O)Oc2ccc(CCC(=O)O)n3ccnc23)cc1
95.1

Give the value of Activity reported for the following: N=C(N)Nc1ncc(C(=O)Oc2ccc(CC(=O)O)n3ncnc23)cn1
99.5

Read off the recorded Activity for N=C(N)Nc1ccc(C(=O)Oc2ccc(CC(=O)O)n3ncnc23)cc1O
92.1

Entry N=C(N)Nc1ccc(C(=O)Oc2ccc(CCC(=O)O)n3ncnc23)cc1 needs its Activity filled in; supply it.
101

Look up Activity of CC(=N)Nc1ccc(C(=O)Oc2ccc(CC(=O)O)n3ncnc23)cc1 and report it.
99.6
